Tested on: hepatocytes
Experiment: RNA-seq of hepatocytes treated with Phase III failure compounds
Give measured RNA-seq results, CYP2B6 expression for each item. Keep answers brief.
One number for each entry.

Worked examples follow.
>>> reported_measurement("Cn1cc(C2=C(c3cn(C4CCN(Cc5ccccn5)CC4)c4ccccc34)C(=O)NC2=O)c2ccccc21 [Enzastaurin]")
0.42
>>> reported_measurement("CCN(CC)CCN(Cc1ccc(-c2ccc(C(F)(F)F)cc2)cc1)C(=O)Cn1c(SCc2ccc(F)cc2)nc(=O)c2c1CCC2 [Darapladib]")
"−0.12"
>>> reported_measurement("COc1cc2nccc(Oc3ccc(NC(=O)Nc4cc(C)on4)c(Cl)c3)c2cc1OC [Tivozanib]")
0.16

Hi, could you look up RNA-seq results, CYP2B6 expression for each item in my list?
1. NC(=O)c1ccc(I)c([N+](=O)[O-])c1 [BSI-201]
2. Cn1cnc2c(F)c(Nc3ccc(Br)cc3Cl)c(C(=O)NOCCO)cc21 [Selumetinib]
3. C=CCNC1=C2C[C@@H](C)C[C@H](OC)[C@H](O)[C@@H](C)/C=C(\C)[C@H](OC(N)=O)[C@@H](OC)/C=C\C=C(/C)C(=O)NC(=CC1=O)C2=O [17-MG (Tanespimycin), Tanespimycin]
4. COc1cc2c(Oc3ccc4[nH]c(C)cc4c3F)ncnc2cc1OCCCN1CCCC1 [Cediranib]

Result ::
1. 0.07
2. 0.38
3. 1.32
4. −0.46

Query :: Any idea what its RNA-seq results, CYP2B6 expression is? The molecule is CCOC(=O)N1c2ccc(C(F)(F)F)cc2[C@@H](N(Cc2cc(C(F)(F)F)cc(C(F)(F)F)c2)C(=O)OC)C[C@H]1CC [Torcetrapib]
Result :: 0.36
